Values were extracted from patent US20210198277A1.

Target: UniProt:Q9H9B1
Sequence (Q9H9B1 whole entry, species assumed): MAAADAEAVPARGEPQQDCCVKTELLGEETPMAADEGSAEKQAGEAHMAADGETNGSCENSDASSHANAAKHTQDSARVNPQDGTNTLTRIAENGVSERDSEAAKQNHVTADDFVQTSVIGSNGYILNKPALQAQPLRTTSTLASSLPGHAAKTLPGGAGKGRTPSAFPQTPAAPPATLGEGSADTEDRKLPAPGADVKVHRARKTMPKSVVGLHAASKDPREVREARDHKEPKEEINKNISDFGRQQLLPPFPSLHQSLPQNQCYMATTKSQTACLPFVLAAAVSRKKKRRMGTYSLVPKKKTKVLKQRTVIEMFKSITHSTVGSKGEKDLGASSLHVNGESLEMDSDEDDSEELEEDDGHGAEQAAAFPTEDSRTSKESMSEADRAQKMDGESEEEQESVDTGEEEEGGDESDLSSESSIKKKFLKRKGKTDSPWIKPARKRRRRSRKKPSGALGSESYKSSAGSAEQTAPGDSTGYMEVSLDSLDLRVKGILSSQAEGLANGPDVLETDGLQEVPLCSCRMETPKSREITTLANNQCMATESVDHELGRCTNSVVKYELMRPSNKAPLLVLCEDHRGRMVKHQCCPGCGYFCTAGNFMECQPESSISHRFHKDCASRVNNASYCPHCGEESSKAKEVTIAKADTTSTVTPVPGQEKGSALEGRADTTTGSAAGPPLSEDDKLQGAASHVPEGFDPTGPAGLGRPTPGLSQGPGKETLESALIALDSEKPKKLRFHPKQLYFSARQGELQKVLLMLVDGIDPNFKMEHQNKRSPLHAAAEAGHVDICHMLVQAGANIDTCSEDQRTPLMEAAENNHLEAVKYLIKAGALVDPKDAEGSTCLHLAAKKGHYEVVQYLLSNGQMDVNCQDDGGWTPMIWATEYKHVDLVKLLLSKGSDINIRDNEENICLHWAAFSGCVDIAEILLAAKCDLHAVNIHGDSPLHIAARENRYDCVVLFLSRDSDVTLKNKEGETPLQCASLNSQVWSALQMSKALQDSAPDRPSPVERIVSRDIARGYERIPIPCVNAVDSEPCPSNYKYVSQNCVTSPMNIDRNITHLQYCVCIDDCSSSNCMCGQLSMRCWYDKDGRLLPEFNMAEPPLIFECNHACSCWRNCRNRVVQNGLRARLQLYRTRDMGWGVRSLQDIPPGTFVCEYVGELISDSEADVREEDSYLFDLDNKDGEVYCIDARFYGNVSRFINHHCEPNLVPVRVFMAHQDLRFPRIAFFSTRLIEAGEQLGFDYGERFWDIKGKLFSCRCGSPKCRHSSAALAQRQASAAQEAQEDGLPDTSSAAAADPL
Procedure text: EHMT1 enzyme assay on peptide substrate (EHMT1 PEP)
Type: biochemical
Assay conditions: Table II; read-out: EHMT1 PEP (IC50 μM)
Property: IC50

>>> experimental_result("CNc1cc(Nc2ccc(OC)c(OCCCN3CCCC3)c2)cnn1 [Compound 188]")
"0.1 to 1 µM"
>>> experimental_result("COc1ccc(Nc2nccc(N3CCNc4ccccc4C3)n2)cc1OCCCN1CCCC1 [Compound 154]")
"> 10 µM"
>>> experimental_result("COc1ccc(Nc2nccc(CNC(C)=O)n2)cc1OCCCN1CCCC1 [Compound 144]")
"> 10 µM"
>>> experimental_result("CCCCNc1nccc(NCC2CCOC2)n1 (stereo not shown) [Compound 62]")
"> 10 µM"
>>> experimental_result("CNc1nc(Nc2ccc(OC)c(OCCCN3CCCC3)c2)ncc1Cl [Compound 211]")
"1 to 10 µM"
>>> experimental_result("COc1ccc(Nc2nccc(N(C)C3CCOCC3)n2)cc1OCCCN1CCCC1 [Compound 142]")
"1 to 10 µM"
>>> experimental_result("COc1ccc(Nc2nccc(NCc3cnn(C)c3)n2)cc1OCCCN1CCCC1 [Compound 30]")
"0.1 to 1 µM"
